Target: T1, IL-2 receptor βγ complex (human, UniProt P14784 27-551; P31785 23-369)
T1 sequence (looked up) 1: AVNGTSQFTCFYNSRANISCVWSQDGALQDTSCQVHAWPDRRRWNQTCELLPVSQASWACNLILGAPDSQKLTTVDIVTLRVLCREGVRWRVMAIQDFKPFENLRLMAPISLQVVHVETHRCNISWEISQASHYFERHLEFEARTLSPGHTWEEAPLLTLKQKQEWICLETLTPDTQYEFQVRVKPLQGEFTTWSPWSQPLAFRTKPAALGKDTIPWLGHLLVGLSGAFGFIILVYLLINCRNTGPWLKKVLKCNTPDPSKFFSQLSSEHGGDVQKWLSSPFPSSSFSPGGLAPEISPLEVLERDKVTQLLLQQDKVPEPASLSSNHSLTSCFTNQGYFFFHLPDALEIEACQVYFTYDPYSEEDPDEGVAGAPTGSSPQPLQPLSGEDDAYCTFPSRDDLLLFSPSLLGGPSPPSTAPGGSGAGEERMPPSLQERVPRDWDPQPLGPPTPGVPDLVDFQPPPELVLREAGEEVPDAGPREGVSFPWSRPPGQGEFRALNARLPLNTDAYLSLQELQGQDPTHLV
T1 sequence (looked up) 2: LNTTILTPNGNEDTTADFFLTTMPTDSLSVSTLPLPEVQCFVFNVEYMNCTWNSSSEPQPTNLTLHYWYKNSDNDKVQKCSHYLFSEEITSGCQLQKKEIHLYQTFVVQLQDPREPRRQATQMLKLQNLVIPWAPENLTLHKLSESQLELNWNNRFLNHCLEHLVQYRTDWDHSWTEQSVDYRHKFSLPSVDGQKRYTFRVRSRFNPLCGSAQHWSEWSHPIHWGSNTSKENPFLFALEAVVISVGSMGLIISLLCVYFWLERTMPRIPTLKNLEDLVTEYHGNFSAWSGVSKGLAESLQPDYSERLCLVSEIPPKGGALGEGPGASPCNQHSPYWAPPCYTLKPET
Test: cell-based or functional assay
Bridges are numbered along the chain shown (N, C = ends). Primed or numbered codes have the meaning given here. [ ]: non-standard residue; d: D form. cleavable peptide‑PEG9‑glutaryl = not defined here; Ygp″ = O-(8x polyethylene glycol-amino)-tyrosine; Yn3″ = O-(9x polyethylene glycol-azido)-tyrosine; hSer = N[C@@H](CCO)C(=O)O; Nle = CCCC[C@H](N)C(=O)O
test.readout: Average EC50, pSTAT5 Assay (T cells) (nM)
Give just the numeric value; nM need not be written.

binder	Average EC50, pSTAT5 Assay (T cells) [nM]
CMP-152 (ligand, linker N-38 via PEG9‑glutaryl) PLGLAGAPTSSSTKKTQLQLEHLLLDLQ[Nle]ILNGINNYKNPKLTR[Nle]L[hSer][Yn3″]KF[Ygp″][Nle]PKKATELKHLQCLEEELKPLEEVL[hSer]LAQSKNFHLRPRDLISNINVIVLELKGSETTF[hSer]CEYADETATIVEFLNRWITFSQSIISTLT	16.1

Lab note: next binder to report on.
Fill in the blank: the reported Average EC50, pSTAT5 Assay (T cells) of CMP-151 (ligand, linker N-23 via cleavable peptide‑PEG9‑glutaryl; reading uncertain) APTSSSTKKTQLQLEHLLLDLQKILNGINNYKNPKLTR[Nle]L[hSer][Yn3″]KF[Ygp″][Nle]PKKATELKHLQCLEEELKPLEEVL[hSer]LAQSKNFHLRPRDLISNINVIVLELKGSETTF[hSer]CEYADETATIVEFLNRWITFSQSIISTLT is ____. 28.2
